# experimentNotes: in vitro
# measurementParameters: human
experimentalEndpoint: CC50 at 3 days

| molecule | CC50 at 3 days |
| --- | --- |
| COc1ccc(C(=O)N2CCN(C)CC2)cc1S(=O)(=O)N(Cc1ccc(F)cc1)Cc1ccc(F)cc1 | 25.8 µM |
| COc1ccc(OC)c(S(=O)(=O)N(Cc2ccccc2)C2CCCN(C(C)=O)C2)c1 (stereo not drawn) | > 64 µM |

*Q* For the molecule COc1ccc(OC)c(S(=O)(=O)N(Cc2ccc(F)cc2)Cc2nc(C)no2)c1 , report CC50 at 3 days.
*A* > 64 µM

----------
# experimentNotes: in vitro
# measurementParameters: mouse, microsomes, pH 7.4, MLM CLint, mouse liver microsomes
Property: microsomal CLint at 0.5 μM; scope: individual molecules
The figure you give is taken to be in µL/min/mg; do not add the unit.

Worked cases, answers included:
| molecule | unitName | val |
| --- | --- | --- |
| COCCN(Cc1ccccc1)S(=O)(=O)c1ccc(NC(C)=O)cc1 | µL/min/mg | 29 |
| O=S(=O)(NCc1ccc(F)cc1)c1cccnc1OCc1ccccc1 | µL/min/mg | 2750 |
| COc1ccc(OC)c(S(=O)(=O)N(CCn2nc(C)cc2C)Cc2ccccc2)c1 | µL/min/mg | 3100 |
| CCN(Cc1ccccn1)S(=O)(=O)c1cc(OC)ccc1OC | µL/min/mg | 2190 |
| COc1ccc(CN2CCCC2)cc1S(=O)(=O)N(Cc1ccc(F)cc1)Cc1ccc(F)cc1 | µL/min/mg | 144 |

*Q* For the molecule O=S(=O)(NCc1ccccc1)c1cc(F)ccc1F , report microsomal CLint at 0.5 μM.
*A* 260

*Q* For the molecule COc1ccc(OC)c(S(=O)(=O)N(Cc2ccc(F)cc2)Cc2oc(C)nc2C)c1 , report microsomal CLint at 0.5 μM.
*A* 2280

*Q* For the molecule COc1ccc(S(=O)(=O)N(Cc2ccccc2)Cc2ccccc2)cc1 , report microsomal CLint at 0.5 μM.
*A* 2410

*Q* For the molecule CC[C@H](Cc1ccccc1)[S+]([O-])c1ccccc1OC (stereo partly drawn) , report microsomal CLint at 0.5 μM.
*A* 3620

*Q* For the molecule CNc1ncccc1S(=O)(=O)N(Cc1ccc(F)cc1)Cc1ccc(F)cc1 , report microsomal CLint at 0.5 μM.
*A* 984

----------
# experimentNotes: in vitro
# measurementParameters: human
Property: CC50 at 3 days; scope: individual compounds

| compound | val |
| --- | --- |
| COc1ccc(S(N)(=O)=O)cc1S(=O)(=O)NCc1ccccc1 | > 64 µM |
| CCCCCOc1cc(C)c(Cl)cc1S(=O)(=O)NCc1ccco1 | 11.7 µM |
| COc1ccc(OC)c(S(=O)(=O)N2CCCC2c2ccc(F)cc2)c1 (stereo not shown) | > 32 µM |
| COc1ccc(OC)c(S(=O)(=O)N(Cc2ncccn2)Cc2ncccn2)c1 | > 64 µM |
| CCN(Cc1ccccc1)S(=O)(=O)c1cc(F)ccc1F | 45.2 µM |
| COc1ccc(C(=O)N2CCOCC2)cc1S(=O)(=O)N(Cc1ccccc1)Cc1ccccc1 | > 64 µM |
| CCN(Cc1ccccc1)S(=O)(=O)c1ccc(C)cc1 | > 64 µM |
| CCCCCOc1cc(C)c(C)cc1S(=O)(=O)NC1CCCC1 | 37 µM |
| CNC(=O)c1ccc(OC)c(S(=O)(=O)N(CCOC)Cc2ccccc2)c1 | > 64 µM |
| O=S(=O)(c1cc(F)ccc1F)N(CCO)Cc1ccccc1 | > 64 µM |

*Q* For the compound O=S(=O)(c1cccnc1OC(F)F)N(Cc1ccc(F)cc1)Cc1ccc(F)cc1 , report CC50 at 3 days.
*A* > 64 µM

*Q* For the compound COc1ccc(C(=O)N2CCCC2)cc1S(=O)(=O)N(Cc1ccccc1)Cc1ccccc1 , report CC50 at 3 days.
*A* > 64 µM

*Q* For the compound COc1ccc(C(=O)O)cc1S(=O)(=O)N(Cc1ccccc1)Cc1ccccc1 , report CC50 at 3 days.
*A* > 64 µM

*Q* For the compound CC[C@H](Cc1ccccc1)S(=O)(=O)c1ccccc1OC , report CC50 at 3 days.
*A* > 64 µM

*Q* For the compound COc1ncc(Br)cc1S(=O)(=O)N(Cc1ccc(F)cc1)Cc1ccc(F)cc1 , report CC50 at 3 days.
*A* > 64 µM

*Q* For the compound COc1ncccc1S(=O)(=O)N(Cc1ccccc1)Cc1ccccc1 , report CC50 at 3 days.
*A* 3.81 µM

*Q* For the compound O=S(=O)(NC(CO)Cc1ccccc1)c1ccccc1Br (stereo not shown) , report CC50 at 3 days.
*A* > 64 µM

*Q* For the compound COc1ccc(CN2CCOCC2)cc1S(=O)(=O)N(Cc1ccc(F)cc1)Cc1ccc(F)cc1 , report CC50 at 3 days.
*A* > 64 µM

*Q* For the compound CC[C@H](Cc1ccccc1)[S+]([O-])c1ccccc1OC (stereo partly shown) , report CC50 at 3 days.
*A* > 64 µM

*Q* For the compound CCCOc1cc(C)c(C)cc1S(=O)(=O)NCC1CCCO1 (stereo not shown) , report CC50 at 3 days.
*A* > 32 µM

*Q* For the compound COc1ccc(C)cc1S(=O)(=O)N(CC(=O)Nc1ccccc1)Cc1ccccc1 , report CC50 at 3 days.
*A* > 55.4 µM

*Q* For the compound O=S(=O)(NC(CO)Cc1ccccc1)c1cc(F)ccc1F (stereo not shown) , report CC50 at 3 days.
*A* > 64 µM

*Q* For the compound COc1ccc(F)cc1S(=O)(=O)N(Cc1ccccc1)Cc1ccccc1 , report CC50 at 3 days.
*A* > 64 µM

*Q* For the compound COc1ccc(OC)c(S(=O)(=O)N(C)Cc2ccc(F)cc2)c1 , report CC50 at 3 days.
*A* > 64 µM

*Q* For the compound COc1ccc(OC)c(S(=O)(=O)N(Cc2ccccc2)C2CCN(C(C)=O)CC2)c1 , report CC50 at 3 days.
*A* > 64 µM

*Q* For the compound COc1ccc(C(=O)N2CCOCC2)cc1S(=O)(=O)N(Cc1ccccc1)Cc1cnc(C(F)(F)F)nc1 , report CC50 at 3 days.
*A* > 64 µM

*Q* For the compound [2H]C([2H])([2H])Oc1ncccc1S(=O)(=O)N(Cc1ccc(F)cc1)Cc1ccc(F)cc1 , report CC50 at 3 days.
*A* > 64 µM

*Q* For the compound COc1ccc(C#N)cc1S(=O)(=O)N(Cc1ccc(F)cc1)Cc1ccc(C#N)cc1 , report CC50 at 3 days.
*A* > 64 µM

*Q* For the compound O=S(=O)(c1cc(F)ccc1F)N(Cc1ccccc1)C(CO)c1ccc(F)cc1 (stereo not shown) , report CC50 at 3 days.
*A* 21.2 µM

*Q* For the compound Nc1cc(Cl)c(S(N)(=O)=O)cc1S(=O)(=O)N(Cc1ccccc1)Cc1ccccc1 , report CC50 at 3 days.
*A* 43.4 µM

*Q* For the compound COc1ccc(C)cc1S(=O)(=O)N(CC(=O)NCc1ccc(Cl)cc1)Cc1ccccc1 , report CC50 at 3 days.
*A* > 55.4 µM

*Q* For the compound COCCN(Cc1ccccc1)S(=O)(=O)c1c(OC)ccc(Cl)c1[S+](C)[O-] (stereo not shown) , report CC50 at 3 days.
*A* > 64 µM

*Q* For the compound COc1ccc(CN2CCC(F)(F)CC2)cc1S(=O)(=O)N(Cc1ccc(F)cc1)Cc1ccc(F)cc1 , report CC50 at 3 days.
*A* > 64 µM

*Q* For the compound O=C(c1ccc(OCC2CCCO2)c(S(=O)(=O)NCc2ccccc2)c1)N1CCOCC1 (stereo not shown) , report CC50 at 3 days.
*A* > 64 µM

----------
# experimentNotes: in vitro
# measurementParameters: human, microsomes, pH 7.4, HLM CLint, human liver microsomes
experimentalEndpoint: microsomal CLint at 0.5 μM (µL/min/mg)
The figure you give is taken to be in µL/min/mg; do not add the unit.

Worked cases, answers included:
| compound | val |
| --- | --- |
| COc1ccc(C#N)cc1S(=O)(=O)N(Cc1ccc(F)cc1)Cc1ccccn1 | 694 |
| CCOCCOc1ncccc1S(=O)(=O)NCc1ccc(F)cc1 | 2210 |
| COc1ncccc1S(=O)(=O)N(Cc1ccc(F)cc1)Cc1ccc(F)cc1 | 334 |
| COc1ccc(S(C)(=O)=O)cc1S(=O)(=O)N(Cc1ccc(F)cc1)Cc1ccc(F)cc1 | 296 |
| O=S(=O)(c1ccccc1OC(F)(F)F)N(Cc1ccccc1)Cc1ccccc1 | 93 |
| COc1ccc(OC)c(S(=O)(=O)N(CCN2CCOCC2)Cc2ccccc2)c1 | 227 |

*Q* For the compound COc1ccc(Cl)cc1S(=O)(=O)N(Cc1ccccc1)C(Cc1ccccc1)C(N)=O (stereo not drawn) , report microsomal CLint at 0.5 μM.
*A* 752

*Q* For the compound COCCN(Cc1ccccc1)S(=O)(=O)c1ccc(NC(C)=O)cc1 , report microsomal CLint at 0.5 μM.
*A* 424

*Q* For the compound COc1ccc(Cl)cc1S(=O)(=O)NCCN(C)C , report microsomal CLint at 0.5 μM.
*A* 33
